Target: T1, recombinant human Trop-2-his protein (ACCESSION NO.: NP_002344.2, AA 1-274) (human, UniProt P09758 27-274)
T1 construct: range 27-274; also called recombinant human Trop-2 protein; recombinant human Trop-2 extracellular domain; not shown: his tag
T1 sequence (looked up): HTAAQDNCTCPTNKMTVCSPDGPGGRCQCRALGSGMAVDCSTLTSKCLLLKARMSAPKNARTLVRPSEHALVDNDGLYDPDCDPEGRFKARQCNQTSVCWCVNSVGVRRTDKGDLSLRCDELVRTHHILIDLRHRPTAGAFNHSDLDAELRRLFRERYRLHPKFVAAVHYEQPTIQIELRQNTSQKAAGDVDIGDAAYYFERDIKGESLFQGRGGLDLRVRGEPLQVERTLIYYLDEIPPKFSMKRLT
Assay: BLI, antibody on AHC sensor, Trop-2-his 60 nM
Endpoint Name: pKd
Give only the number. pKd is defined as minus log10 of concentration in molar units.

Q: Form field: reported pKd of h4-3-18 (antibody, human IgG1, kappa, V domains shown) VH: EVQLVQSGPEVKKPGASVKVSCKASGFTFTDYVIGWVRQAPGQGLEWIGEIYLGSGTIYYAEKFKGRVTMTADTSTSTAYMELSSLRSEDTAVYYCARGSIFPFDYWGQGTLVTVSS VL: DIQLTQSPSSLSASVGDRVTITCSASSSVSYMYWYQQKPGKAPKLLIYDTSTLASGVPSRFSGSGSGTDFTLTISSLQPEDFATYYCQQWNSYPYTFGQGTKLEIKR
A: 9.17
